# testedOn: HPK1 (Homo sapiens, UniProt Q92918)
pKi values, listed per item
Answer as the number alone; pKi is minus log10 of concentration in mol/L.

Some solved cases for reference:
{"compound": "CCc1ccncc1-c1cc(N)c2nnc(NC(=O)[C@@H]3C[C@@H]3F)cc2c1 (racemic)", "result": 8.40}
{"compound": "Cn1cc(-c2cc(N)c3nnc(NC(=O)[C@@H]4C[C@H]4C#N)cc3c2)cn1 (racemic)", "result": 7.85}
{"compound": "Cc1ccncc1-c1cc(N)c2nnc(NC(=O)C3CC3)cc2c1", "result": 8.72}
{"compound": "Cn1cc(-c2cc(N)c3nnc(NC(=O)N4CCCC4)cc3c2)cn1", "result": 7.19}
{"compound": "CC(C)OC(=O)Nc1cc2cc(-c3cnn(C)c3)cc(N)c2nn1", "result": 7.55}
{"compound": "Cc1ccncc1-c1cc(C)c2nnc(NC(=O)C3CC3)cc2c1", "result": 6.59}

Req: API: value(readout=pKi, system=HPK1 (Homo sapiens, UniProt Q92918)) for record Cc1cnsc1-c1cc(N)c2nnc(NC(=O)[C@@H]3C[C@@H]3F)cc2c1 (racemic)
Resp: 8.52

Req: API: value(readout=pKi, system=HPK1 (Homo sapiens, UniProt Q92918)) for record COc1ccncc1-c1cc(N)c2nnc(NC(=O)[C@@H]3C[C@@H]3F)cc2c1
Resp: 7.24

Req: API: value(readout=pKi, system=HPK1 (Homo sapiens, UniProt Q92918)) for record Cc1cc(N)ncc1-c1cc(N)c2nnc(NC(=O)[C@@H]3C[C@@H]3F)cc2c1
Resp: 7.82

Req: API: value(readout=pKi, system=HPK1 (Homo sapiens, UniProt Q92918)) for record Cn1cc(-c2cc(N)c3nnc(NC(=O)[C@@H]4C[C@@H]4F)cc3c2)cn1 [Compound 18a]
Resp: 7.82

Req: API: value(readout=pKi, system=HPK1 (Homo sapiens, UniProt Q92918)) for record Cc1cnccc1-c1cc(N)c2nnc(NC(=O)[C@@H]3C[C@@H]3F)cc2c1 [Compound 17a]
Resp: 7.28

Req: API: value(readout=pKi, system=HPK1 (Homo sapiens, UniProt Q92918)) for record Cc1c(N)cncc1-c1cc(N)c2nnc(NC(=O)[C@H]3C[C@@H]3C#N)cc2c1 (single isomer, unassigned) [Compound 23b]
Resp: 8.40

Req: API: value(readout=pKi, system=HPK1 (Homo sapiens, UniProt Q92918)) for record Cc1c(N)cncc1-c1cc(N)c2nnc(NC(=O)[C@@H]3C[C@H]3C#N)cc2c1 (single isomer, unassigned) [Compound 23a]
Resp: 9.15
